- Test system: HT-29
- protocol_description: Inhibition of cells growth by colorimetric (SRB) assay, HT-29
- condition: Homo sapiens, HT-29, 48 h, read-out: HT-29 LC50, SRB assay, 48 hours exposure
readout_type: CC50

                                   molecule  target_of_assay  observed_result
0  CSc1nccc(-c2c3cccnc3n3c(NC(C)=O)nccc23)n1            HT-29          28.5 µM
1      COc1cccc(-c2c3cccnc3n3c(SC)nccc23)c1            HT-29          31.1 µM
2    COc1cccc(-c2c3cccnc3n3c(N)nccc23)c1.Cl            HT-29          30.6 µM
3  CSc1nccc(-c2c3cc4ccccc4nc3n3c(N)nccc23)n1 [Compound 18a]            HT-29        ≥ 27.9 µM
4        Cc1nccc(-c2c3cccnc3n3c(N)nccc23)n1            HT-29          36.2 µM
5  COc1ccc(COc2nccc(-c3c4cccnc4n4c(N)nccc34)n2)cc1            HT-29          25.1 µM
6    CSc1nccc(-c2c3ccc(C)nc3n3c(N)nccc23)n1            HT-29          31.1 µM
7           Nc1nccc2c(-c3ccncn3)c3cccnc3n12            HT-29          38.1 µM
8          CSc1nccc2c(-c3ccccc3)c3cccnc3n12            HT-29        ≥ 34.3 µM
9  CSc1nccc(-c2c3c(Cl)ccnc3n3c(N)nccc23)n1.Cl            HT-29          26.4 µM

====

- System: HT-29
- protocol_description: Inhibition of cells growth by colorimetric (SRB) assay, HT-29
- condition: Homo sapiens, HT-29, 48 h, read-out: LC50 HT-29, SRB assay, 48 hours exposure
We'd kindly ask you to apply these CC50 classes: c1 (below 20 µM), c2 (20 µM to below 30 µM), c3 (30 µM or more)

>>> print(df.to_string())
                                    molecule  assigned_label
 0  COc1ccc2nc3c(cc2c1)c(-c1ccnc(SC)n1)c1ccnc(SC)n13 [Compound 17b]              c1
 1  COc1ccc(CNc2nccc(-c3c4c(OCc5ccccc5)ccnc4n4c(NCc5ccc(OC)cc5)nccc34)n2)cc1 [Compound 53]              c1
 2  Cc1ccc2c(-c3ccnc(N)n3)c3ccnc(N)n3c2n1.Cl [Compound 44]              c2
 3  Cl.Nc1nccc2c(-c3ccncn3)c3cccnc3n12 [Compound 71]              c3
 4  Nc1nccc(-c2c3c(OCc4ccccc4)ccnc3n3c(N)nccc23)n1 [Compound 96]              c2
 5  CSc1nccc(-c2c3cccnc3n3c(NC(C)=O)nccc23)n1 [Compound 69]              c2
 6  CSc1nccc(-c2c3c(OCc4ccccc4)ccnc3n3c(SC)nccc23)n1 [Compound 52]              c1
 7  CSc1nccc(-c2c3cccnc3n3c(N)nccc23)n1 [Compound 25]              c3
 8  Nc1nccc(-c2c3c(N)ccnc3n3c(N)nccc23)n1 [Compound 90]              c1
 9  Cl.Nc1nccc(-c2c3cc4ccccc4nc3n3c(N)nccc23)n1 [Compound 42]              c2
10  COc1ccc2nc3c(cc2c1)c(-c1ccnc(N)n1)c1ccnc(N)n13 [Compound 19b]              c2
11  CC(C)c1c2cccnc2n2c(N)nccc12 [Compound 66]              c3
12  CSc1nccc(-c2c3c(OCc4ccccc4)ccnc3n3c(N)nccc23)n1 [Compound 94]              c2
13  COc1nccc(-c2c3c(OCc4ccccc4)ccnc3n3c(N)nccc23)n1 [Compound 102]              c2
14  CS(=O)(=O)c1nccc(-c2c3c(Cl)ccnc3n3c(N)nccc23)n1 [Compound 111]              c2
15  Nc1nccc(-c2c3cccnc3n3ccccc23)n1 [Compound 56]              c3
16  CSc1nccc(-c2c3cc4ccccc4nc3n3c(SC)nccc23)n1 [Compound 17a]              c3
17  Nc1nccc2c(-c3ccncn3)c3c(OCc4ccccc4)ccnc3n12 [Compound 98]              c2
